Target: type 2 human 5α-reductase (HRED2) (Homo sapiens, UniProt P31213)
Sequence (P31213 1-254): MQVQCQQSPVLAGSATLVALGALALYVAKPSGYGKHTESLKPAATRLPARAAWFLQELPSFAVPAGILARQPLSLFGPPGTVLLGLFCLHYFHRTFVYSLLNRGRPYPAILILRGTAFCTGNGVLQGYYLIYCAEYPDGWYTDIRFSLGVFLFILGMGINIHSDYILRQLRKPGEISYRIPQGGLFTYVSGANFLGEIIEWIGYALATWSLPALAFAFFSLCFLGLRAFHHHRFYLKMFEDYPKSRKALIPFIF
Experiment: Whole cell assay of 5α-reductase, type 2 isoenzyme
Format: cell-based
Design: expressed in transfected cells; host or cells: rat 1A cells infected with pMV7 retrovirus
Details: 100 μM, Table 7
measured-metric: inhibition at 100 µM (%)

compound="O=c1c(O)c(-c2ccc(O)c(O)c2)oc2cc(O)ccc12 [Fisetin]" measured_metric="inhibition at 100 µM" unit_symbol=% test_value=27
compound="O=C(O[C@@H]1Cc2c(O)cc(O)cc2O[C@@H]1c1ccc(O)c(O)c1)c1cc(O)c(O)c(O)c1 [Epicatechin Gallate]" measured_metric="inhibition at 100 µM" unit_symbol=% test_value=0
compound="Oc1cc(O)c2c(c1)O[C@H](c1ccc(O)c(O)c1)[C@H](O)C2 [Epicatechin]" measured_metric="inhibition at 100 µM" unit_symbol=% test_value=1

----------
biological target: type 1 human 5α-reductase (HRED1) (Homo sapiens, UniProt P18405); assay: Cell free assay of 5α-reductase, microsomes of rat 1A cells expressing type 1 isoenzyme (HRED1); format: biochemical; design: expressed in transfected cells; host or cells: rat 1A cells infected with pMV7 retrovirus; microsomes; conditions: cell free assay; Table 2 catechols; read-out: HRED1 IC50;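 note: microsomes from rat 1A cells expressing human type 1 5α-reductase, conversion of radiolabeled testosterone to dihydrotestosterone quantified by thin layer chromatography with radioanalytic scanning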
Listed here are compounds together with their documented IC50.
measured-metric: IC50

compound="COC(=O)c1cc(O)c(O)c(O)c1 [Methylgallate]" tested_on="type 1 human 5α-reductase (HRED1) (Homo sapiens, UniProt P18405)" test_value="> 100 µM"
compound=Oc1ccccc1O tested_on="type 1 human 5α-reductase (HRED1) (Homo sapiens, UniProt P18405)" test_value="> 100 µM"
compound="CCCOC(=O)c1cc(O)c(O)c(O)c1 [Propylgallate]" tested_on="type 1 human 5α-reductase (HRED1) (Homo sapiens, UniProt P18405)" test_value="> 100 µM"
compound=O=C(NCCc1cc(O)c(O)c(O)c1)c1cc(O)c(O)c(O)c1 tested_on="type 1 human 5α-reductase (HRED1) (Homo sapiens, UniProt P18405)" test_value="> 100 µM"
compound="OC1c2ccccc2-c2ccccc2C1O (centres unmarked)" tested_on="type 1 human 5α-reductase (HRED1) (Homo sapiens, UniProt P18405)" test_value="> 100 µM"

----------
molecular target: type 2 human 5α-reductase (HRED2) (Homo sapiens); assay: Whole cell assay of 5α-reductase, type 2 isoenzyme; type: cell-based; design: expressed in transfected cells; host or cells: rat 1A cells infected with pMV7 retrovirus; conditions: 100 μM, Table 7
measured-metric: HRED2 % Inhibition @ 100 μM (%)

compound="CCCCC=CCCCCCCCC(=O)OC1Cc2c(O)cc(O)cc2OC1c1cc(O)c(O)c(O)c1 (stereo not drawn)" test_value=98
compound=COc1cc(CCNC(=O)C=Cc2ccc(O)c(O)c2)ccc1O test_value=14
compound="CCCCCC=CCC=CCC=CCCCCC(=O)OC1Cc2c(O)cc(O)cc2OC1c1cc(O)c(O)c(O)c1 (stereo not drawn)" test_value=98
compound="CCCCCCCCCCCCCCCCCC(=O)OC1Cc2c(O)cc(O)cc2OC1c1cc(O)c(O)c(O)c1 (stereo not drawn)" test_value=81
compound=CCCCC/C=C\C/C=C\C/C=C\CCCCC(=O)OC test_value=26
compound="CN(C)c1ccc(C(=O)OC2Cc3c(O)cc(O)cc3OC2c2cc(O)c(O)c(O)c2)cc1 (stereo not drawn)" test_value=62
compound="O=C(OC1Cc2c(O)cc(O)cc2OC1c1cc(O)c(O)c(O)c1)c1ccncc1 (stereo not drawn)" test_value=2
compound="COc1cc(C(=O)OC2Cc3c(O)cc(O)cc3OC2c2cc(O)c(O)c(O)c2)cc(OC)c1OC (stereo not drawn)" test_value=7
compound="CCCCCCCC(=O)OC1Cc2c(O)cc(O)cc2OC1c1cc(O)c(O)c(O)c1 (stereo not drawn)" test_value=83

----------
Molecular target: type 1 human 5α-reductase (HRED1) (Homo sapiens, UniProt P18405)
Sequence (P18405 1-259): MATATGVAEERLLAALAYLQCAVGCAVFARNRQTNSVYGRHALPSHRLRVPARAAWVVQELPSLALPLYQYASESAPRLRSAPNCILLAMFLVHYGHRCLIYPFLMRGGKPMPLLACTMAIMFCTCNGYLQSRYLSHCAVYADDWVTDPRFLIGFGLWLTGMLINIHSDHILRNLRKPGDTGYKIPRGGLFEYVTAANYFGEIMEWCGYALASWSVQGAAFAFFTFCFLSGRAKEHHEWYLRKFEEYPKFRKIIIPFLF
Assay: Cell free assay of 5α-reductase, microsomes of rat 1A cells expressing type 1 isoenzyme (HRED1)
Type: biochemical
Design: expressed in transfected cells; host or cells: rat 1A cells infected with pMV7 retrovirus; microsomes
Details: cell free assay; Table 5 epigallocatechin derivatives; read-out: HRED1 IC50
pIC50: −log10 of the molar value.
pIC50 listing for selected compounds.
measured-metric: pIC50

compound="O=C(OC1Cc2c(O)cc(O)cc2OC1c1cc(O)c(O)c(O)c1)C1CCCCC1 (centres unmarked)" test_value=4.31
compound="Cc1c(O)cc(C(=O)OC2Cc3c(O)cc(O)cc3OC2c2cc(O)c(O)c(O)c2)cc1O (centres unmarked)" test_value=4.54
compound="COc1cc(C(=O)OC2Cc3c(O)cc(O)cc3OC2c2cc(O)c(O)c(O)c2)cc(OC)c1O (centres unmarked)" test_value=4.54
compound="O=C(OC1Cc2c(O)cc(O)cc2OC1c1cc(O)c(O)c(O)c1)c1ccccc1 (centres unmarked)" test_value=4.32
compound="O=C(OC1Cc2c(O)cc(O)cc2OC1c1cc(O)c(O)c(O)c1)c1ccc2ccccc2c1 (centres unmarked)" test_value=4.64

----------
target: type 2 human 5α-reductase (HRED2) (Homo sapiens); assay: Whole cell assay of 5α-reductase, type 2 isoenzyme; type: cell-based; design: expressed in transfected cells; host or cells: rat 1A cells infected with pMV7 retrovirus; settings: Table 7, read-out: HCRED2 IC50;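 note: intact rat 1A cells genetically modified to carry human type 2 5α-reductase served as the enzyme source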
compounds and their reported IC50
measured-metric: IC50

compound=Oc1ccc2c(O)c3ccccc3cc2c1O test_value="> 100 µM"
compound=COc1cc(C(=O)C=Cc2ccc(N(C)C)cc2)cc(OC)c1OC test_value="> 100 µM"
compound="COc1cc(CCC(=O)CC(=O)CCc2ccc(O)c(OC)c2)ccc1O [Tetrahydrocurcumin]" test_value="7 µM"
compound="O=C(OC1Cc2c(O)cc(O)cc2OC1c1cc(O)c(O)c(O)c1)C1CCCCC1 (stereo not shown)" test_value="> 100 µM"
compound=CC1=CC(=O)c2ccccc2C1=O test_value="79 µM"
compound=Oc1ccccc1O test_value="> 100 µM"
compound=Oc1cccc(O)c1O test_value="> 100 µM"
compound="O=C(OC1Cc2c(O)cc(O)cc2OC1c1cc(O)c(O)c(O)c1)c1ccncc1 (stereo not shown)" test_value="> 100 µM"
compound=CCCCC/C=C\C/C=C\C/C=C\CCCCC(=O)OC test_value="> 100 µM"
compound=O=C(/C=C/c1ccc(O)c(O)c1)OCCc1ccccc1 test_value="7 µM"
compound="CN(C)c1ccc(C(=O)OC2Cc3c(O)cc(O)cc3OC2c2cc(O)c(O)c(O)c2)cc1 (stereo not shown)" test_value="80 µM"
compound="COC(=O)c1cc(O)c(O)c(O)c1 [Methylgallate]" test_value="> 100 µM"
compound="COc1cc(C(=O)OC2Cc3c(O)cc(O)cc3OC2c2cc(O)c(O)c(O)c2)cc(OC)c1OC (stereo not shown)" test_value="> 100 µM"

----------
# key: entry, value: IC50
Molecular target: type 2 human 5α-reductase (HRED2) (Homo sapiens)
Sequence (P31213 1-254): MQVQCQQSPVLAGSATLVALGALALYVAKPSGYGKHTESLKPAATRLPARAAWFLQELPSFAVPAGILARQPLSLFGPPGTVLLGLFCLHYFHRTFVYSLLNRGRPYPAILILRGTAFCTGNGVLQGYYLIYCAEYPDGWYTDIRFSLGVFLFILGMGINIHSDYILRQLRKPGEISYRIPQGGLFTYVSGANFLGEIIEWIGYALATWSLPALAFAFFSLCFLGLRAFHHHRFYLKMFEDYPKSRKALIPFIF
Assay: Cell free assay of 5α-reductase, microsomes of rat 1A cells expressing type 2 isoenzyme (HRED2);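 note: labeled testosterone and its product dihydrotestosterone measured in microsomal reaction extracts via thin layer chromatography plus radioanalytic scanning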
Type: biochemical
Set-up: expressed in transfected cells; host or cells: rat 1A cells infected with pMV7 retrovirus; microsomes
Settings: cell free assay; Table 4 quinones; read-out: HRED2 IC50
measured-metric: IC50

compound="CC(C)(C)c1cc(O)ccc1O [T-butylhydroxyquinone]" measured_metric=IC50 test_value="> 100 µM"
compound="CC(C)=CCC1=C(O)C(=O)c2ccccc2C1=O [Lapachol]" measured_metric=IC50 test_value="> 100 µM"
compound="O=C1c2ccccc2C(=O)c2c(O)ccc(O)c21 [Quinizarin]" measured_metric=IC50 test_value="> 100 µM"
